System: Hs683 glioma cells
experimental_details: MTT test, overall cell growth, Hs683
Assay type: cell-based, human
assay_setup: Homo sapiens, Hs 683, 72 hours of incubation
observed_property: pIC50
A value of pIC50 is the negative decimal logarithm of a concentration given in moles per litre.

Given the entry Cc1c2c(cc[n+]1Cc1ccccc1F)c1ccc(OCc3cccc(F)c3)cc1n2Cc1cccc(F)c1.[Br-] [CV19] , report its measured pIC50. 5.66

Field entry: Cc1c2c(cc[n+]1Cc1ccccc1)c1ccc(OCc3ccccc3)cc1n2Cc1ccccc1.[Br-] [CV21/JR95] 6.31

How about this molecule: Cc1c2c(cc[n+]1CCC(C)C)c1ccc(OCc3ccccc3)cc1n2Cc1ccccc1 [PL2] 6.43

// query: Cc1c2c(cc[n+]1Cc1ccc(F)cc1)c1ccc(OCc3cccc(F)c3)cc1n2Cc1cccc(F)c1.[Br-] [CV22] 5.35

Next record, please: Cc1c2c(cc[n+]1Cc1ccccc1)c1ccc(OCC3CCCCC3)cc1n2CC1CCCCC1.[Br-] [CV24] 6.42

Also, Cc1nccc2c3ccc(OCC4CCCCC4)cc3n(CC3CCCCC3)c12 [CV12] please. 4.52

Repeat for the following molecule: Cc1c2c(cc[n+]1Cc1ccccc1)c1ccc(OCc3ccc(F)cc3)cc1n2Cc1ccc(F)cc1.[Br-] [CV23] 6.05

----------
Tested on: OE21 oesophageal cancer cells
experimental_details: MTT test, overall cell growth, OE21
Assay type: cell-based, human
assay_setup: 72 hours of incubation
Would you mind telling me the reported pIC50 of each entry?
The read-out pIC50 is expressed as -log10 of concentration in moles per litre.

What value of pIC50 has been reported for the following compound? `Cc1c2c(cc[n+]1CCC(C)C)c1ccc(OCCC(C)C)cc1n2CCC(C)C` 6.32

Let us now turn to `Cc1nccc2c1[nH]c1cc(OCC(C)C)ccc12` 4.92

Query `Cc1nccc2c1[nH]c1cc(OCc3cccc4ccccc34)ccc12` next 4.48

Follow-up item: `Cc1c2c(cc[n+]1Cc1ccccc1)c1ccc(OCCC(C)C)cc1n2CCC(C)C` 5.43

And the next one, `Cc1c2c(cc[n+]1CCO)c1ccc(OCCC(C)C)cc1n2CCC(C)C` ? 5.12

And `Cc1nccc2c1[nH]c1cc(OCCO)ccc12` ? 4.52

What about `Cc1c2c(cc[n+]1CCO)c1ccc(OCc3ccccc3)cc1n2Cc1ccccc1` ? 4.60

Now consider `Cc1nccc2c1[nH]c1cc(OCCc3ccccc3)ccc12` . 4.85

Now consider `Cc1nccc2c1[nH]c1cc(OCc3ccccn3)ccc12` . 4.80

Let us now turn to `Cc1c2[nH]c3cc(OCc4ccccc4)ccc3c2cc[n+]1Cc1ccccc1` 5.22

Cool, now `COCCOc1ccc2c(c1)[nH]c1c(C)nccc12` 4.28

Please give the result for `C=CCOc1ccc2c(c1)[nH]c1c(C)nccc12` too. 4.57

Now consider `Cc1nccc2c1[nH]c1cc(OCc3ccncc3)ccc12` . 5.30

Another: `Cc1c2c(cc[n+]1Cc1ccccc1F)c1ccc(OCc3ccc(F)cc3)cc1n2Cc1ccc(F)cc1.[Br-]` 5.80

And what about the compound `Cc1nccc2c1[nH]c1cc(OC(=O)c3ccccc3)ccc12` ? 4.52

What do you get for `Cc1nccc2c1[nH]c1cc(OCC3CCCCC3)ccc12` ? 5.08

Follow-up entry: `Cc1nccc2c1[nH]c1cc(OCc3cccnc3)ccc12` 4.55

Next compound: `Cc1c2c(cc[n+]1Cc1ccccc1)c1ccc(OCc3cccc(F)c3)cc1n2Cc1cccc(F)c1.[Br-]` 6.40

Input `Cc1c2c(cc[n+]1CC(=O)c1ccccc1)c1ccc(OCc3ccccc3)cc1n2Cc1ccccc1` 4.77

----------
System: Hs683 glioma cells
experimental_details: MTT test, overall cell growth, Hs683
Assay type: cell-based, human
assay_setup: Homo sapiens, Hs 683, 72 hours of incubation
observed_property: log10(IC50) (log10 of the value in µM)
Recorded IC50 (log10, µM)

Lab note: need log10(IC50) for CCCn1c2cc(OCc3ccccc3)ccc2c2ccnc(C)c21 [CV33] on Hs683 glioma cells, anyone have it? 1.11

Thanks! And CCCn1c2cc(OCc3ccccc3)ccc2c2cc[n+](Cc3ccccc3F)c(C)c21.[Br-] [CV35] ? -0.35

Then this compound: Cc1nccc2c3ccc(OCc4cccc(F)c4)cc3n(Cc3cccc(F)c3)c12 [CV5] 1.24

// repeat for Cc1c2c(cc[n+]1Cc1ccccc1F)c1ccc(OCC3CCCCC3)cc1n2CC1CCCCC1.[Br-] [CV26] and report -0.60

Param item: CCC[n+]1ccc2c3ccc(OCc4ccccc4)cc3n(Cc3ccccc3)c2c1C [CV56] -0.22

Further, for Cc1c2c(cc[n+]1Cc1ccc(F)cc1)c1ccc(OCC3CCCCC3)cc1n2CC1CCCCC1.[Br-] [CV30] ? 0.49

Could you do the same for Cc1nccc2c1[nH]c1cc(OCc3ccccc3)ccc12 [JR79, 1-methyl-7-benzyloxy-β-carboline] , please? 1.23

Can you handle Cc1nccc2c3ccc(OCc4ccc(F)cc4)cc3n(Cc3ccc(F)cc3)c12 [CV11] next? 1.23

Another: CCCn1c2cc(OCc3ccccc3)ccc2c2cc[n+](Cc3ccc(F)cc3)c(C)c21.[Br-] [CV36] 0.49

Repeat for the following compound: Cc1nccc2c3ccc(OCc4ccccc4)cc3n(Cc3ccccc3)c12 [CV9/JR84] 1.52

Thanks! And CCCCCC[n+]1ccc2c3ccc(OCc4ccccc4)cc3n(Cc3ccccc3)c2c1C [CV53] ? -0.22

And then Cc1c2c(cc[n+]1Cc1ccccc1F)c1ccc(OCc3ccccc3)cc1n2Cc1ccccc1.[Br-] [CV18] , what is it? -0.36

Also Cc1nccc2c3ccc(O)cc3n(Cc3ccccc3)c12 [CV27, 1-methyl-7-hydroxy-9-benzyl-β-carboline] , if possible. 1.90

----------
Test system: human cancer cell lines (U373, T98G, Hs683, OE21, OE33)
experimental_details: MTT test, mean over the cancer cell lines
Type: cell-based
assay_setup: Homo sapiens; mean over the cancer cell lines, MTT test; read-out: IC50 Mean ± SEM
Provide the reported IC50 of each item.
Numeric only. Scale: µM

GET /values?readout=IC50&system=human cancer cell lines (U373, T98G, Hs683, OE21, OE33)&item= `Cc1c2c(cc[n+]1Cc1ccc(F)cc1)c1ccc(OCC3CCCCC3)cc1n2CC1CCCCC1.[Br-]` 1.6

Try the compound `CCC[n+]1ccc2c3ccc(OCc4ccccc4)cc3n(Cc3ccccc3)c2c1C` 5

Next: `Cc1c2c(cc[n+]1Cc1ccccc1)c1ccc(OCC3CCCCC3)cc1n2CC1CCCCC1.[Br-]` 0.34

Here is the next compound: `Cc1nccc2c3ccc(OCc4cccc(F)c4)cc3n(Cc3cccc(F)c3)c12` 14
